system: SK-MEL-5 melanoma; assay: NCI tumour cell line growth inhibition, 48 h
Reported endpoint: TGI

TGI lookup needed for `N#Cc1c(-c2ccco2)cc(-c2ccccc2)[nH]c1=O` , thanks.
> 100 µM

Query (compound): `Cc1cccc(N(CC(=O)O)S(=O)(=O)c2ccccc2)c1` ; field requested: TGI
> 100 µM

Returns the measured TGI for the input compound. Input: `CCOC(=O)c1sc2ncnc(N)c2c1C`
> 100 µM

Request the reported TGI associated with `C[C@]12CC[C@@H]3c4ccc(O)cc4CC[C@H]3[C@@H]1C/C(=C\c1ccc(C#N)cc1)C2=O`
> 100 µM

Could you share which TGI value was measured for CC1(C)OC2COC3([C@@H]4OC(C)(C)O[C@@H]4CO)OC(C)(C)OC3C2O1 (stereo partly specified) ?
> 100 µM

Entry `Cc1cccc(/C(Br)=C2/OC(=O)c3ccccc32)c1` : reported TGI = ?
> 100 µM

Please give the measured TGI for this compound: Cc1cccc(C)c1N1C(=O)C(=O)C(c2nc3ccccc3s2)C(=Nc2cccc3c(=O)[nH][nH]c(=O)c23)C1=O (stereo unspecified)
> 100 µM

What does the data say about its TGI? Entry: CC1(O)CCn2c(=O)c3cc4ccccc4cc3c(=O)n2C1O (stereo unspecified)
> 100 µM

I have this compound here, `COc1ccc(OC)c2sc(N3C(=O)/C(=C/c4cccc([N+](=O)[O-])c4)N=C3c3ccccc3)nc12` , and I need its recorded TGI.
> 100 µM

Need TGI of `O=[N+]([O-])c1cccc2c(N=Nc3ccc4ccccc4c3O)c(O)cc(S(=O)(=O)O)c12` , thanks.
> 100 µM

Record request: TGI value, item `Cc1ccc2oc(=O)c(-c3ccccc3)nc2c1`
> 100 µM

---

test system: TK-10 renal; assay: NCI tumour cell line growth inhibition, 48 h; in the data active = GI50 below about 0.43 µM; inactive = the rest
Use one of these outcomes when replying: True = active, False = inactive

Dear colleague, could you share the recorded outcome for `COc1ccc(C(=O)c2nc3ccccc3n2CC(=O)c2ccc(Cl)cc2)cc1` when you have a moment?
False

Please indicate how the test categorized `CCN(CC)c1ccc(/C=C/C2=[N+](C)c3ccccc3C2(C)C)c(C)c1` .
True

Would you mind telling me which call this test gave `CC(C)Oc1ccc(C(=O)Cn2ccnc2)cc1-n1c(CN2CCN(C(=O)COc3ccc(Cl)cc3)CC2)nc2ccccc2c1=O` ?
False

Each compound tested received a call. Report the one for `Nc1cc(-c2ccc(Cl)cc2)nn1-c1nnc(/C=C/c2ccco2)c(=O)[nH]1` .
False

So what was the verdict on `COC(=O)c1ccc2c(c1)C(=O)c1c-2n(CCCN=[N+]=[N-])c(=O)c2cc([N+](=O)[O-])ccc12` in this test?
False

Dear colleague, could you share the recorded outcome for `COc1ccc(Nc2nccc(N3CCN(c4c5ccc(Cl)cc5nc5ccc(OC)cc45)CC3)n2)cc1` when you have a moment?
False

Hi team, can someone confirm the assay call for `O=C(/C=C/c1cccc(O)c1)c1cccc(-n2cc(-c3ccc4ccccc4c3)[nH]c2=O)c1` ?
False

For this compound, state the assay outcome: `COc1ccc(-c2cnoc2-c2cc(OC)c3c(c2)OCCO3)cc1`
False

Check the results log: what was the call for `COc1ccc(C2=C(N3CCc4ccccc43)C(=O)NC2=O)cc1` ?
False

Would you mind telling me which call this test gave `OCc1ccc(N2CCOCC2)cc1Cl` ?
False

---

test system: ACHN renal; assay: NCI tumour cell line growth inhibition, 48 h
Consider the following compounds; for each one, report its TGI.

Which value of TGI has been reported for `O=C1C=CC(=O)C(CNc2ccc(C(=O)OCc3ccccc3)cc2)=C1` in the records?
12.9 µM

Recorded TGI for O=c1[nH]c2cc([N+](=O)[O-])ccc2nc1/C(=N\Nc1ccccc1)C(O)c1ccc2c(c1)OCO2 (stereo not given) , please?
> 100 µM

What value of TGI has been reported for the following compound? CCOC(=O)C1=CC(C)(C(=O)OCC)Nc2c(nc(N)[nH]c2=O)N1 (stereo not given)
> 10 µM

Any idea what its TGI is? The compound is `C/C(=N\Nc1nc2ccccc2s1)c1ccc2ccccc2n1`
> 100 µM

Requested read-out: TGI. Entry: `Cc1cc(C)n(C2=NS(=O)(=O)c3ccccc3N2C)n1`
> 100 µM

---

For each entry below, report its TGI value.
system: MALME-3M melanoma; assay: NCI tumour cell line growth inhibition, 48 h
Answer with a number only, understood to be in µM.

Quick one: TGI for `c1cnn2ncc(-c3ccnc(Nc4ccc5c(c4)OCCO5)n3)c2c1` ?
0.276

Query (compound): CCOC(=O)C1(Cc2ccc3ccccc3c2)CCCCC(=O)N1 (stereo not drawn) ; field requested: TGI
86.5

Please look up its TGI: `O=[N+]([O-])c1cccc2c(N=Nc3ccc4ccccc4c3O)c(O)cc(S(=O)(=O)O)c12`
80.6

So what's the measured TGI for this one? `CCN(CC)c1ccc(/C=C/C2=[N+](C)c3ccccc3C2(C)C)c(C)c1`
1.09

Which TGI reading was recorded for the compound `Cc1ccc2oc(=O)c(-c3ccccc3)nc2c1` ?
66.1

Look up TGI for this compound: `COc1cc2nc(-c3ccc(C(F)(F)F)cc3)cc(OCCCN3CCCC3)c2cc1OC`
5.59

Quick check: TGI of CCCCCCCCCCCC1CC(=O)NCCCN(C)CCCCN(C)CCCN1C (stereo not drawn) ?
3.33

Name the recorded TGI for `COc1ccc2c(c1)c(=O)c1c(NCCNCCO)ccc3c(=O)n(CCN(C)C)c(=O)n2c31` .
0.449

Query: TGI; subject: CC(C)(C)NCC(COc1ccc([N+](=O)[O-])cc1)OP(c1ccccc1)c1ccccc1 (stereo not drawn)
67

---

system: SN12C renal; experiment: NCI tumour cell line growth inhibition, 48 h
Answer each item with its documented TGI.

Look up TGI: `C=CC1=C(C)C2=NC1=CC1=NC(=CC3=C(C)C4=C(O)[C@H](C(=O)OC)C(=C5NC(=C2)[C@@H](C)[C@@H]5CCC(=O)O)C4=N3)C(CC)=C1C`
> 100 µM

Fill blank: measured TGI of the compound `COc1ccc(-c2cnoc2-c2cc(OC)c3c(c2)OCCO3)cc1` is ____.
> 94.3 µM

For `Cc1cc(C)c(/C=C(\C(=C/c2c(C)cc(C)cc2C)[N+](=O)[O-])[N+](=O)[O-])c(C)c1` , what is its reported TGI?
> 100 µM

Quick one: TGI of `CCOC(=O)c1c(SCCN2CCOCC2)n(-c2ccccc2)c(=S)n(-c2ccccc2)c1=O` ?
> 100 µM

I have this compound here, `C[n+]1c(/C=C/c2ccc(O)c3ncccc23)[se]c2ccccc21` , and I need its recorded TGI.
16.1 µM

Which TGI value is on record for CC1(C)N=C2C(=O)c3c([nH]c4ccccc34)[C@]3(C)CCC1CC23 (stereo partly specified) ?
> 6.25 µM

Consider the compound shown here: `Cc1ccccc1/C=C/C(=O)c1ccccc1` What is its recorded TGI?
> 10 µM

Return reported TGI; argument: c1ccc2c(c1)CCCC/C2=N/OCC1CO1 (stereo unspecified)
> 100 µM

Item `Clc1ccc(/C(=C\c2ccccc2)Cn2ccnc2)cc1` has what recorded TGI?
89.2 µM

Given CCOC(OC1=C(C#N)CCCC1)C(CC)[Se]c1ccccc1 (stereo unspecified) , state its recorded TGI.
36.9 µM

Please give the measured TGI for this compound: CCOC(=O)C1(Cc2ccc3ccccc3c2)CCCCC(=O)N1 (stereo unspecified)
> 100 µM

I'd like to know its TGI. The compound in question is COc1ccc(N2C(=O)C3c4[nH]c5ccccc5c4C4CCCCCCCCCC4C3C2=O)cc1 (stereo unspecified)
> 10 µM

Suppose we examine the compound `O=C(NCCN1CCNCC1)c1ccc(Nc2nc3ccccc3c3occc23)cc1` ; what TGI value has been reported?
34.9 µM

TGI lookup needed for `CC(=Nc1ccc(S(N)(=O)=O)cc1)c1c(O)[nH]c2ccccc12` , thanks.
> 25 µM

Given the compound `O=S1CSSC1` , what is its reported TGI?
24.4 µM

Return reported TGI; argument: `CN(C)C(=S)Nc1nnc(Nc2ccccc2)s1`
> 100 µM

---

system: NCI/ADR-RES ovarian; experiment: NCI tumour cell line growth inhibition, 48 h
Task for the reader: assign each of the following molecules its reported TGI.
Value expressed in µM; do not type the unit.

// lookup TGI for `O=C1C=CC(=O)C(CNc2ccc(C(=O)OCc3ccccc3)cc2)=C1`
23.5

What does the data say about its TGI? Entry: `O=C(/C=C/c1cccc(O)c1)c1cccc(-n2cc(-c3ccc4ccccc4c3)[nH]c2=O)c1`
5.83

---

Please go through the items and note down their TGI.
system: 786-0 renal; test: NCI tumour cell line growth inhibition, 48 h

Return reported TGI; argument: `COc1ccc2[nH]c(-c3ccc(O)cc3)cc(=O)c2c1`
> 58.1 µM

Entry `COc1ccc(F)c(F)c1C(=O)c1cnc(NC2CCN(S(C)(=O)=O)CC2)nc1N` : reported TGI = ?
> 27 µM

What measured TGI goes with CCCCCCCCCCCCCCCCCCOCC(COCCOCC[N+]1(CCCCCC(=O)[O-])CCCC1)Oc1ncccn1 (stereo not drawn) ?
22.2 µM

Please give the measured TGI for this molecule: `O=C1C=CC(=O)C(CNc2ccc(C(=O)OCc3ccccc3)cc2)=C1`
13.6 µM

I have this molecule here, `OCc1ccc(N2CCOCC2)cc1Cl` , and I need its recorded TGI.
> 100 µM

Requested read-out: TGI. Entry: O=C1CS(=O)(=O)C(c2cccc(Oc3ccccc3)c2)N1c1cc(Cl)ccc1Cl (stereo not drawn)
34.8 µM

Give the measured TGI of `Cc1ccccc1/C=C/C(=O)c1ccccc1` .
29.9 µM

# query: TGI of entry C[C@H]1[C@H](C)CC[C@]2(C(=O)OC3OC(CO)C(O)C(O)C3O)CC[C@]3(C)C(=CC[C@@H]4[C@@]5(C)C[C@H]6OC(=O)c7cc(O)c(O)c(O)c7-c7c(cc(O)c(O)c7O)C(=O)O[C@@H]6C(CO)(CO)[C@@H]5CC[C@]43C)[C@H]12 (stereo partly drawn)
> 52.2 µM

Which TGI is reported for this molecule? `O=C1C2=C(CCC2)Nc2cccc3ncn1c23`
> 100 µM

Name the reported TGI value associated with the molecule `COc1cc2[nH]c(-c3ccccc3)cc(=O)c2c(OC)c1OC`
> 100 µM

Which TGI is reported for this molecule? `c1ccc([P+](CCCCCCCC[P+](c2ccccc2)(c2ccccc2)c2ccccc2)(c2ccccc2)c2ccccc2)cc1`
> 100 µM

May I ask what TGI has been recorded for `Cc1nc(-c2cccnc2)sc1C(=O)/C=C/c1cccc([N+](=O)[O-])c1` ?
> 100 µM

For the molecule Cc1cccc(C)c1N1C(=O)C(=O)C(c2nc3ccccc3s2)/C(=N/NC(=O)NN)C1=O (stereo not drawn) , what TGI is on record?
> 100 µM

TGI lookup needed for `O=S1(=O)c2cnccc2NC(=NCc2ccccc2)N1c1ccccc1` , thanks.
> 100 µM

Query: TGI; subject: O=C1c2cccc(O)c2C(=O)c2c(OC3OC(CO)C(O)C(O)C3O)cccc21 (stereo not drawn)
> 100 µM

# input molecule: `Cc1cc(C)nc(NS(=O)(=O)c2ccc(NC(=O)c3cccc4c(NNc5ccc(S(=O)(=O)N=C(N)N)cc5)c5ccccc5nc34)cc2)n1` ; wanted: its TGI
> 50 µM

Which TGI reading was recorded for the molecule COC(=O)C1(O)C(c2ccccc2)=NC2(C)CCCC21 (stereo not drawn) ?
> 100 µM

Requested field: TGI. Item: `O=C(NCCN1CCNCC1)c1ccc(Nc2nc3ccccc3c3occc23)cc1`
21.6 µM

Consider the molecule O=S1SC(=S)C2C=CC=CC21 (stereo not drawn) and give its measured TGI.
> 100 µM

# query: TGI of entry `O=C(O)/C=C\C(=O)Nc1ccc(S(=O)(=O)c2ccc(NC(=O)/C=C\C(=O)O)cc2)cc1`
> 100 µM

Tell me the measured TGI of `CCOC(=O)NC(Nc1c(F)c(F)c(F)c(F)c1F)(C(F)(F)F)C(F)(F)F` , please.
> 100 µM

Please look up its TGI: O=C(CC(C(=O)c1ccco1)c1ccco1)c1ccco1 (stereo not drawn)
> 100 µM

What TGI value was documented for this molecule, O=C(OCC1OC(n2nc(Cn3nnc(-c4cccnc4)n3)n(-c3cccc4ccccc34)c2=S)C(OC(=O)c2ccccc2)C1OC(=O)c1ccccc1)c1ccccc1 (stereo not drawn) ?
> 100 µM

Which TGI value is on record for `O=C1c2ccccc2-c2c1c1c(NCCCO)nc3ccccc3c1n2Cc1ccccc1` ?
43.7 µM

Query (molecule): CC(C)(C)c1ccc(OC2CCO2)cc1 (stereo not drawn) ; field requested: TGI
63.3 µM

What does the record list as TGI for N#C/C(=C1\SC(N=Nc2ccc(Cl)cc2)C(=O)N1c1ccccc1)c1nc2ccccc2[nH]1 (stereo not drawn) ?
26.8 µM

Consider the molecule `O=C1CNS(=O)(=O)N1` and give its measured TGI.
> 100 µM

Query: TGI; subject: `CCOC(=O)c1sc2ncnc(N)c2c1C`
> 100 µM

Name the recorded TGI for `c1ccc(-c2nc(N3CCCNCC3)c3nc(-c4ccccc4)oc3n2)cc1` .
3.45 µM

Entry under review: `CC(=O)n1nc(-c2ccccc2)n(/N=C/c2ccc([N+](=O)[O-])o2)c1=O` . Reported TGI?
7.97 µM

For the molecule `O=C(O)c1ccccc1C(=O)c1ccc2c(c1)Cc1ccccc1-2` , what TGI is on record?
> 100 µM

Query: TGI; subject: O=C1C(C(O)(C(F)(F)F)C(F)(F)F)CCC1C(O)(C(F)(F)F)C(F)(F)F (stereo not drawn)
> 38.8 µM

Consider the molecule COc1ccc(NC(C)c2ccncc2)cc1 (stereo not drawn) and give its measured TGI.
> 100 µM

Fill in the blank: the reported TGI of `O=C(/C=C/c1ccc2c(c1)OCO2)Cc1nc2ccccc2[nH]c1=O` is ____.
32.5 µM

Tell me the measured TGI of `O=c1c2ccccc2sc2ccccc12` , please.
> 100 µM

Look up TGI: COc1cc(/C=C2\CCC(C)/C(=C\c3cc(OC)c(OC)c(OC)c3)C2=O)cc(OC)c1OC (stereo not drawn)
> 100 µM

Field request: TGI | item: `CC(C)[O-].CC(C)[O-].CN(CCN(C)Cc1cc(F)cc(F)c1[O-])Cc1cc(F)cc(F)c1[O-].[Ti+4]`
5.7 µM

Which value of TGI has been reported for `COc1c(O)c(OC)c2oc(-c3ccc(O)cc3)c(OC)c(=O)c2c1O` in the records?
86.3 µM
